Experiment: qHTS assay for small molecule activators of the nuclear factor-kappa B (NF-kB) signaling pathway (AID 651749); further: % of control where 0% means no effect
Conditions: NF-kB-bla ME-180 cells, beta-lactamase FRET ratio, 16 h; stronger effect = higher value
Results filed as inconclusive are left out.
observed property: activation (%)
All answers are understood in %, so give the number only.

In the examples that follow, each entry is paired with its recorded activation.
- compound: "ClC(Br)Br"
  activation [%]: 1.19
- compound: "N#C/C(N)=C(/N)C#N"
  activation [%]: -1.05
- compound: "CCOS(C)(=O)=O"
  activation [%]: 0.8
- compound: "[O-][Cl+2]([O-])O"
  activation [%]: -0.919
- compound: "O=C(O)C(Br)CBr (stereo not drawn)"
  activation [%]: 1.48
- compound: "BrC(Br)Br"
  activation [%]: 0.744
- compound: "CCCCOC(=O)c1ccccc1N"
  activation [%]: -0.998
- compound: "CN(C)c1ccc(N(C)C)cc1"
  activation [%]: 0.946

We next turn to a different compound, shown below.
Exercise: // returns reported activation for input C=CCO
Key: 0.305

----------
Target: Thyroid hormone receptor beta (Homo sapiens) (UniProt P10828)
Sequence (P10828 whole entry, looked up): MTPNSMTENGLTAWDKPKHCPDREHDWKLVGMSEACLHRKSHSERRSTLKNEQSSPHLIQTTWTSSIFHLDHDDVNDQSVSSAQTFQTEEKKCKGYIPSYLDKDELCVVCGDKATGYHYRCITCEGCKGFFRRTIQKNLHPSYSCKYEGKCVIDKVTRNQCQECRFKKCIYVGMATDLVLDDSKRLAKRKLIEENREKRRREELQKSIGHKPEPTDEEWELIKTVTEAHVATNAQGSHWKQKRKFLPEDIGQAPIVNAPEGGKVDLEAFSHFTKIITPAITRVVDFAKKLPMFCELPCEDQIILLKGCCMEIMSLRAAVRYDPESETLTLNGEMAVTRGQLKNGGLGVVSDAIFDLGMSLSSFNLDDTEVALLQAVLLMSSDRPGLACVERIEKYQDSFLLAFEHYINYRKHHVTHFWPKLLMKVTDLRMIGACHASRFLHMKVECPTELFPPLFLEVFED
Assay: qHTS assay for small molecule antagonists of thyroid hormone receptor beta signaling (AID 588547);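 further: cells stimulated with 0.4 nM T3 agonist during compound exposure; on the % scale 0 is the no-effect control and ±100 the full control effect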
Conditions: TR-UAS-bla HEK293, beta-lactamase ratio, antagonist mode, 18 h
Inconclusive results are not listed.
observed property: activity change % (negative = inhibition) (%)
Please respond with the number in % and leave the unit unwritten.

- compound: "C=CC#N"
  data value: -5.45
- compound: "Cc1ccc2c(C)cccc2c1"
  data value: 8.64
- compound: "Cc1cc(Cl)ccc1O"
  data value: -9.26
- compound: "ClC(Cl)C(Cl)Cl"
  data value: 0.5
- compound: "CC(C)(COCC1CO1)COCC1CO1 (stereo not given)"
  data value: -13.4

Exercise: Query: activity change % (negative = inhibition); subject: NNC(N)=S
Key: 4.76

Exercise: Requested read-out: activity change % (negative = inhibition). Entry: BrCC(Br)(Br)Br
Key: -15.5

Exercise: Find the recorded activity change % (negative = inhibition) belonging to ClCC(Cl)Cl and report it.
Key: 8.38

Exercise: Given the compound O=NN1CCCCC1 , what is its reported activity change % (negative = inhibition)?
Key: 8.23

Exercise: Return reported activity change % (negative = inhibition); argument: CC(C#N)CCC#N (stereo not given)
Key: 9.23

----------
Test: qHTS assay for small molecule agonists of retinoid X receptor alpha signaling (AID 588544)
Settings: HEK293T RXRa-UAS-bla, beta-lactamase reporter, 18 h; 530 nm emission
Records with an inconclusive call do not appear.
// max response lookup, one value per entry
Numbers only here, please. The scale is %.

Here are 10 compounds together with their reported answers.
- compound: "Cc1ccc(N)c(C)c1"
  observed property: "max response"
  data value: -7.75
- compound: "c1ccc(OCC2CO2)cc1 (stereo not drawn)"
  observed property: "max response"
  data value: 6.69
- compound: "C/C=C/C=O"
  observed property: "max response"
  data value: -18.6
- compound: "O=[N+]([O-])c1ccc(O)c([N+](=O)[O-])c1"
  observed property: "max response"
  data value: -6.65
- compound: "c1ccc2c(c1)CCNC2"
  observed property: "max response"
  data value: -9.85
- compound: "O=C(O)C(Br)CBr (stereo not drawn)"
  observed property: "max response"
  data value: 10.3
- compound: "CCCBr"
  observed property: "max response"
  data value: -13.5
- compound: "C(CCOCC1CO1)COCC1CO1 (stereo not drawn)"
  observed property: "max response"
  data value: -1.76
- compound: "C=CCO"
  observed property: "max response"
  data value: -10.3
- compound: "CCCCCCCCCCCCCl"
  observed property: "max response"
  data value: -9.69

Exercise: Name the reported max response value associated with the compound c1ccc(N=NNc2ccccc2)cc1
Key: 7.75

Exercise: Please look up its max response: O=C(O)C(Cl)Br (stereo not drawn)
Key: -0.567

Exercise: Recorded max response for Nc1ccc([N+](=O)[O-])cc1[N+](=O)[O-] , please?
Key: -7.45

Exercise: Reported max response for CN(C)c1ccccc1 : what is it?
Key: -3.38

Exercise: Tell me the measured max response of COC(C)(C)C , please.
Key: 9.16

Exercise: Quick one: max response of CCC[N+](=O)[O-] ?
Key: -16.6

Exercise: Any idea what max response was measured for CN(C)c1ccc(N)cc1 ?
Key: -18.3

----------
Target: Estrogen receptor (Homo sapiens) (UniProt P03372)
Sequence (P03372 whole entry, looked up): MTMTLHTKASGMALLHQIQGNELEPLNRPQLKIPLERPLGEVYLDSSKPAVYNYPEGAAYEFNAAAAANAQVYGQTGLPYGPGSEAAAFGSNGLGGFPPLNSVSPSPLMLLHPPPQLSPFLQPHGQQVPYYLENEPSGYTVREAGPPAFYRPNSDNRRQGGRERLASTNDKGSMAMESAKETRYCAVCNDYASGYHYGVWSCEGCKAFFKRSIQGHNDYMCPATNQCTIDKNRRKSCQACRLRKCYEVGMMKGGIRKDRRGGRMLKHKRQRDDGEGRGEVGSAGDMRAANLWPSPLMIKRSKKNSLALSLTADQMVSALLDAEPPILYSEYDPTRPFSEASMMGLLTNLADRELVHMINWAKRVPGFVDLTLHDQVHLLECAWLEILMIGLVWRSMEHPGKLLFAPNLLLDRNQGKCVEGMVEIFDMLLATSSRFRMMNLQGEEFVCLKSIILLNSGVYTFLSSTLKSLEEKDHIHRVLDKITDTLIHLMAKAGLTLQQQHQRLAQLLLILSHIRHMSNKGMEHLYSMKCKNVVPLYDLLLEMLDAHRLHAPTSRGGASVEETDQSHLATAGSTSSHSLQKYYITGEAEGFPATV
Test: qHTS assay for small molecule agonists of estrogen receptor alpha signaling (AID 588514);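 further: 0% = vehicle only and 100% = reference agonist; nearly all actives have a fitted effect of over 70% in size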
Conditions: ER-alpha-UAS-bla HEK293, beta-lactamase ratio, 18 h; series mostly up to 76.8 µM
Records with an inconclusive call do not appear. Activity calls are given as the source filed them. The call rests on the fitted dose curve.
Please reply with one of these outcomes: active, inactive

Here are 6 compounds together with their reported answers.
- compound: "O=[N+]([O-])c1ccccc1-c1ccccc1"
  cat: "inactive"
- compound: "CC(=O)CCC(C)=O"
  cat: "inactive"
- compound: "N#CC(Br)Br"
  cat: "inactive"
- compound: "C[N+](=O)[O-]"
  cat: "inactive"
- compound: "Cc1coc2c1CCC(C)C2 (configuration not stated)"
  cat: "inactive"
- compound: "CC(C)CON=O"
  cat: "inactive"

Exercise: // outcome(item) with item = CCCCNC(=O)n1c(NC(=O)OC)nc2ccccc21
Key: inactive

Exercise: Per the records of this test, what outcome belongs to [N-]=[N+]=[N-] ?
Key: inactive

Exercise: Entry Cl/C=C/Cl : call = ?
Key: inactive

Exercise: Would you mind telling me which call this test gave NNC(N)=S ?
Key: inactive

Exercise: What did the test return for Nc1c(Cl)cc([N+](=O)[O-])cc1Cl ?
Key: inactive

----------
System: HIV-1 nucleocapsid protein NCp7 (binding to TG oligonucleotide)
Assay: HIV Nucleocapsid (AID 346);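 further: potency means the concentration at half of the fitted maximal effect; potency is for inhibitors that block NC binding and lower polarization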
Conditions: HIV-1 NC / fluorescein-TGTGTGTG probe, fluorescence polarization
Calls of active or inactive are those of the source. The rule behind the calls is not given here.
# Potency annotations

- smiles code: "COc1ccc(C(=O)N2CCC[C@@]3(CCN(c4ncccn4)C3)C2)cc1"
  Potency: "> 20 µM (inactive)"
- smiles code: "CCNc1ncc2nc(-c3cccc(C#N)c3)c(=O)n(C)c2n1"
  Potency: "> 20 µM (inactive)"
- smiles code: "COc1cccc(Cn2c(=O)c(-c3cccs3)nc3cnc(N4CCOCC4)nc32)c1"
  Potency: "> 20 µM (inactive)"
- smiles code: "CN(C)c1ccc(-c2nccc(NCCN3CCOCC3)n2)cc1"
  Potency: "> 20 µM (inactive)"
- smiles code: "COc1ccc(-c2nc3cnc(N4CCN(C)CC4)nc3n(Cc3cccs3)c2=O)cc1"
  Potency: "> 4 µM (inactive)"

Please look at the following compound next.
Exercise: What value of Potency has been recorded for this entry: CNc1nc(-c2ccccc2OC)nc2ccccc12
Key: > 20 µM (inactive)

----------
Experiment: Cell Viability - LYMP1-003 - Assay at 24 hr (AID 963);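 further: plate controls were DMSO only for no effect and tetraoctylammonium bromide positive control for full effect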
Conditions: LYMP1-003 lymphoblastoid cell viability; series mostly up to 92.2 µM
Active and inactive are the calls of the source. Calls come from the whole dose curve; as a rule, active = well fitted cell-killing curve with a large enough effect; inconclusive = small, poorly fitted or top-dose-only effect; inactive = flat fitted curve, though single readings scatter.
observed property: outcome

Example entries and their recorded answers appear below.
- compound: "CC(C)[C@]12CC(=O)[C@H](C)[C@H]1C2"
  outcome: "inactive"
- compound: "c1ccc2c(c1)CCNC2"
  outcome: "inactive"
- compound: "C=CCO"
  outcome: "inactive"
- compound: "Cc1ccc2c(C)cccc2c1"
  outcome: "inactive"

Exercise: Entry Clc1cccc(Cl)c1 : reported outcome = ?
Key: inactive

Exercise: // lookup outcome for ClCCOCOCCCl
Key: inactive

Exercise: Which outcome value belongs to O=C(O)C(Br)CBr (stereo not drawn) ?
Key: inactive

Exercise: Dear colleague, I am looking for the recorded outcome of the following compound: CCCCC(=O)Cl
Key: inactive

Exercise: Reported outcome for OCCCCO : what is it?
Key: inactive

Exercise: Requested read-out: outcome. Entry: Nc1ccc(-c2ccccc2)cc1
Key: inactive

Exercise: Record request: outcome value, item O=NN1CCCCC1
Key: inactive

Exercise: What does the data say about its outcome? Entry: CN(C)c1ccc(N(C)C)cc1
Key: inactive

----------
Assay: Cell Viability - LYMP2-009 (AID 968);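 further: cells exposed to compound for 24 h at 37 °C; nearly all actives have a fitted effect of over 55% in size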
Settings: LYMP2-009 lymphoblastoid cell viability; series mostly up to 92.2 µM
Records with an inconclusive call do not appear. The source made the active and inactive calls. Calls come from the whole dose curve; as a rule, active = well fitted cell-killing curve with a large enough effect; inconclusive = small, poorly fitted or top-dose-only effect; inactive = flat fitted curve, though single readings scatter.
Answer with one of the outcomes given here: yes = active, no = inactive

Some entries whose results are on file:
- molecule: "Nc1ccc2ccccc2c1"
  cat: "no"
- molecule: "Nc1ccc(Cc2ccc(N)c(Cl)c2)cc1Cl"
  cat: "no"
- molecule: "N#CC(Cl)(Cl)Cl"
  cat: "no"
- molecule: "CN(C)c1ccc(N)cc1"
  cat: "yes"

Exercise: Name the outcome recorded for CC(C)(C)C(O)(CCc1ccc(Cl)cc1)Cn1cncn1 (stereo not drawn) in the assay.
Key: no

Exercise: Called result for ClC(Cl)(Cl)C(Cl)(Cl)Cl
Key: no

Exercise: Assay outcome for CC(C)CON=O : what was it?
Key: no

Exercise: State the result this test recorded for ClCc1ccccn1 .
Key: no
